experiment: Drug uptake in African green monkey COS-1 cells at 10 uM measured after 24 hrs by trypan blue staining based LC-MS/MS analysis; type: ADME, cell-based; conditions: chlorocebus aethiops, cos-1, 24 h
Reported Drug uptake values for a set of compounds
reportedProperty: Drug uptake (pg/10^4 cells)

substanceSmiles	reportedProperty	quantitativeReadout
CCCCCCOc1cc2c(cc1-n1c(C(F)(F)F)nc3cc(C(=O)O)ccc31)C(C)(C)CCC2(C)C	Drug uptake	55.1
CCCCCCOc1cc2c(cc1-n1nnc3cc(C(=O)O)ccc31)C(C)(C)CCC2(C)C	Drug uptake	81.6
CCCCCOc1cc2c(cc1-n1nnc3cc(C(=O)O)ccc31)C(C)(C)CCC2(C)C	Drug uptake	10.2
CCCCCOc1cc2c(cc1-n1c(C(F)(F)F)nc3cc(C(=O)O)ccc31)C(C)(C)CCC2(C)C	Drug uptake	14.8
